Target: beta-catenin (Homo sapiens, UniProt P35222)
Construct: made in house; host or cells: E. coli BL21 (DE3) pLysS
Sequence (P35222 134-665): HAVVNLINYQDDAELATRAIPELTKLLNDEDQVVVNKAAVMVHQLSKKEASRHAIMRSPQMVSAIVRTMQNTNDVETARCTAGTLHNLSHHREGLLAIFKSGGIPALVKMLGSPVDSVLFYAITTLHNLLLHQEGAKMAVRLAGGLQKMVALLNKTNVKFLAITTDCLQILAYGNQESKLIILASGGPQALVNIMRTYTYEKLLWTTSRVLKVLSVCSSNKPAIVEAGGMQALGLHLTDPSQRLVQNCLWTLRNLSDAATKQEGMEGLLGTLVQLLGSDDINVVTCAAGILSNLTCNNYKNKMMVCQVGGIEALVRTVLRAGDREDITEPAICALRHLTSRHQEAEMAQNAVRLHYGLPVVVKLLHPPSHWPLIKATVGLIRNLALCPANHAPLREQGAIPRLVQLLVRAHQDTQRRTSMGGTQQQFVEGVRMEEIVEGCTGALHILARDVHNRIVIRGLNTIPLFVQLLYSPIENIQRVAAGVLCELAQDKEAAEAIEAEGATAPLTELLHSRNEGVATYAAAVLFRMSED
Assay: Phage Library Screening with NGS, beta-catenin
Type: binding
Details: beta-catenin target concentration 1000; first 1000 column
Each record is given Satisfied if its reported Target Concentration 1000 (phage screen NGS readout) is strictly below 40. Records at or above 40 are given Not satisfied.

The following sequences have reported results that may help.
>>> qualitativelabel("DPAESDCILAAYICYVE")
"Not satisfied"
>>> qualitativelabel("DPAMSQCNWAAVHCQLL")
"Satisfied"
>>> qualitativelabel("DPAVVECYEAAYTCQYI")
"Satisfied"
>>> qualitativelabel("DPAVIACYDAAFVCEYF")
"Satisfied"

Does DPAYWDCTHAALLCNLD have Target Concentration 1000 (phage screen NGS readout) strictly under 40? Not satisfied

Is the reported Target Concentration 1000 (phage screen NGS readout) for DPADYDCILAAHICTNI strictly below 40? Not satisfied

Below 40 on Target Concentration 1000 (phage screen NGS readout)? Entry DPAEWDCMHAALICEVH Not satisfied

A record lists DPAEWQCEHAALLCEQQ . Is its Target Concentration 1000 (phage screen NGS readout) below 40? Not satisfied

Consider the sequence DPAFLTCHIAAWACSEQ . Is its Target Concentration 1000 (phage screen NGS readout) strictly less than 40? Not satisfied

For this sequence, is Target Concentration 1000 (phage screen NGS readout) lower than 40? DPALWNCDHAALLCDHQ Satisfied

# strict comparison: is reported Target Concentration 1000 (phage screen NGS readout) < 40? input = DPADNECILAAHICTLA Not satisfied

Hello, is Target Concentration 1000 (phage screen NGS readout) of the following sequence strictly smaller than 40? DPAILTCYEAAFTCQYQ Not satisfied

Target Concentration 1000 (phage screen NGS readout) under 40? Item: DPAEIICYEAAFLCQYQ Satisfied

Strictly below 40: is that where Target Concentration 1000 (phage screen NGS readout) of DPAWQNCTWAAFHCELL sits? Not satisfied

Just wondering, is Target Concentration 1000 (phage screen NGS readout) of DPAENTCSWAAEHCALV below 40? Satisfied

Is the reported Target Concentration 1000 (phage screen NGS readout) for DPAHWSCEWAAEHCRLI strictly below 40? Satisfied

In the record for DPADWICEHAALTCQEF , is Target Concentration 1000 (phage screen NGS readout) less than 40? Satisfied

Confirm or reject: Target Concentration 1000 (phage screen NGS readout) of DPAILDCQLAAMDCSTW lies strictly below 40 Satisfied

Does the reported Target Concentration 1000 (phage screen NGS readout) of the following sequence sit strictly below 40? DPARMTCYEAAFRCQYY Satisfied

Hi there! Is Target Concentration 1000 (phage screen NGS readout) for DPAQSDCDWAAEHCNLI below 40, do you know? Satisfied

Quick check: Target Concentration 1000 (phage screen NGS readout) of DPAFLDCHIAAWTCNEF under 40? Satisfied
